Test system: Mus musculus
Assay: Reduction of lipid peroxidation in subcutaneous pentylenetetrazole treated Swiss albino mouse brain assessed reduction of malondialdehyde level per mg of protein at 100 mg/kg, ip after 4 hrs by TBARS assay
Assay type: functional
Details: route intraperitoneal
In this section we review reported Activity values for a set of compounds.

{"compound": "O=C(N/N=C/c1ccc([N+](=O)[O-])cc1)Nc1cccc2ccccc12", "target-or-system": "Mus musculus", "Activity [nmol]": 3.39}
{"compound": "COc1ccc(/C=N/NC(=O)Nc2cccc3ccccc23)cc1OC", "target-or-system": "Mus musculus", "Activity [nmol]": 2.53}
{"compound": "COc1cc(/C=N/NC(=O)Nc2cccc3ccccc23)cc(OC)c1OC", "target-or-system": "Mus musculus", "Activity [nmol]": 1.87}
{"compound": "O=C(N/N=C/c1ccc(Cl)cc1Cl)Nc1cccc2ccccc12", "target-or-system": "Mus musculus", "Activity [nmol]": 2.78}
{"compound": "CCCC(CCC)C(=O)O [VALPROIC ACID]", "target-or-system": "Mus musculus", "Activity [nmol]": 1.96}

====

In this section we review reported Activity values for a set of compounds.
Test system: Mus musculus
Test: Neurotoxicity in ip dosed Swiss albino mouse assessed as minimum dose required to cause impair in motor coordination after 4 hrs by rotarod test
Assay type: toxicity, organism-based
Conditions: in vivo

{"compound": "O=C(N/N=C/c1ccc(F)cc1)Nc1cccc2ccccc12", "Activity, mg/kg": 100}
{"compound": "O=C(N/N=C/c1ccc(O)cc1)Nc1cccc2ccccc12", "Activity, mg/kg": 300}
{"compound": "COc1cc(/C=N/NC(=O)Nc2cccc3ccccc23)ccc1O", "Activity, mg/kg": 100}
{"compound": "O=C(N/N=C/c1ccccc1)Nc1cccc2ccccc12", "Activity, mg/kg": 100}
{"compound": "O=C(N/N=C/c1ccccc1O)Nc1cccc2ccccc12", "Activity, mg/kg": 300}
{"compound": "O=C(N/N=C/c1ccccc1Cl)Nc1cccc2ccccc12", "Activity, mg/kg": 300}
{"compound": "O=C(N/N=C/c1ccc(Br)cc1)Nc1cccc2ccccc12", "Activity, mg/kg": 300}
{"compound": "CN(C)c1ccc(/C=N/NC(=O)Nc2cccc3ccccc23)cc1", "Activity, mg/kg": 100}
{"compound": "O=C(N/N=C/c1ccc(Cl)cc1Cl)Nc1cccc2ccccc12", "Activity, mg/kg": 300}
{"compound": "NC(=O)N1c2ccccc2C=Cc2ccccc21 [CARBAMAZEPINE]", "Activity, mg/kg": 300}
{"compound": "C/C(=N\\NC(=O)Nc1cccc2ccccc12)c1ccc(C)cc1", "Activity, mg/kg": 300}
{"compound": "C/C(=N\\NC(=O)Nc1cccc2ccccc12)c1ccc(Cl)cc1Cl", "Activity, mg/kg": 300}

====

In this section we review reported minimal effective dose values for a set of compounds.
System: Mus musculus
Experiment: Anticonvulsant activity against subcutaneous pentylenetetrazole-induced seizures in ip dosed Swiss albino mouse assessed as minimum effective dose after 0.5 hrs
Assay type: functional
Conditions: read-out: MED
quantity-measured: minimal effective dose (mg/kg)

{"compound": "COc1ccc(OC)c(/C=N/NC(=O)Nc2cccc3ccccc23)c1", "value-unit": "mg/kg", "reported": 300}
{"compound": "NC(=O)N1c2ccccc2C=Cc2ccccc21 [CARBAMAZEPINE]", "value-unit": "mg/kg", "reported": 100}
{"compound": "COc1cc(/C=N/NC(=O)Nc2cccc3ccccc23)ccc1O", "value-unit": "mg/kg", "reported": 300}
{"compound": "O=C(N/N=C/c1ccccc1[N+](=O)[O-])Nc1cccc2ccccc12", "value-unit": "mg/kg", "reported": 300}
{"compound": "O=C(N/N=C/c1ccc(Cl)cc1)Nc1cccc2ccccc12", "value-unit": "mg/kg", "reported": 300}
{"compound": "COc1ccc(/C=N/NC(=O)Nc2cccc3ccccc23)cc1OC", "value-unit": "mg/kg", "reported": 100}
{"compound": "CCC1(C)CC(=O)NC1=O (stereo unspecified) [ETHOSUXIMIDE]", "value-unit": "mg/kg", "reported": 300}
{"compound": "O=C(N/N=C/c1ccccc1O)Nc1cccc2ccccc12", "value-unit": "mg/kg", "reported": 300}
{"compound": "COc1cccc(/C=N/NC(=O)Nc2cccc3ccccc23)c1", "value-unit": "mg/kg", "reported": 100}
{"compound": "CCCC(CCC)C(=O)O [VALPROIC ACID]", "value-unit": "mg/kg", "reported": 300}
{"compound": "O=C(N/N=C/c1ccccc1Cl)Nc1cccc2ccccc12", "value-unit": "mg/kg", "reported": 300}
